Reported melting point values are given for each entry in this list.

Chem smiles	melting point
O=c1[nH]c2ncc(-c3ccccc3)nc2n1CC1CCCCC1	253 to 255 °C

I have this molecule here, Cc1nc(-c2ccc(-c3cnc4[nH]c(=O)n(CCC5CCOCC5)c4n3)cc2)n[nH]1 , and I need its recorded melting point.
290 to 292 °C

// query melting point value for entry Cc1nc(-c2ccc(-c3cnc4[nH]c(=O)n(CC5CCCCC5)c4n3)cc2)n[nH]1
315 to 318 °C

Need melting point, item O=c1[nH]c2ncc(-c3ccc(O)cc3)nc2n1C1CCOCC1
382 to 383 °C

====

Measured melting point of individual entries

// known answers, use as guide
Chem smiles	Result
O=c1[nH]c2ncc(-c3cn[nH]c3)nc2n1CC1CCOCC1	238 to 240 °C
O=c1[nH]c2ncc(-c3ccc(O)cc3)nc2n1C1CCCCC1	318 to 320 °C
CNC(=O)c1ccc(-c2cnc3[nH]c(=O)n(CC4CCCCC4)c3n2)cc1	273 to 275 °C
O=c1[nH]c2ncc(-c3ccn[nH]3)nc2n1CC1CCCCC1	264 to 266 °C
Cl.NCc1nc(-c2ccc(-c3cnc4[nH]c(=O)n(CC5CCCCC5)c4n3)cc2)n[nH]1	326 to 329 °C

Sample O=c1[nH]c2ncc(-c3ccc(-n4ccnc4)cc3)nc2n1CC1CCCCC1 — what was its melting point?
284 to 287 °C

Returns the measured melting point for the input molecule. Input: CC(C)NC(=O)c1ccc(-c2cnc3[nH]c(=O)n(CC4CCCCC4)c3n2)cc1
264 to 268 °C

Reported melting point for CC(C)(O)c1nc(-c2ccc(-c3cnc4[nH]c(=O)n(CC5CCOCC5)c4n3)cc2)n[nH]1 : what is it?
249 to 253 °C

====

melting point values for the molecules below.

Some molecules with known melting point results, for comparison:
Molecule	Property measured	Result
O=C1Cc2ccc(-c3cnc4[nH]c(=O)n(CC5CCCCC5)c4n3)cc2N1	melting point	334 to 336 °C
COCCNc1ncc(-c2cnc3[nH]c(=O)n(CC4CCCCC4)c3n2)cn1	melting point	> 250 °C
O=c1[nH]c2ncc(-c3ccc(O)cc3)nc2n1CC1CCNCC1	melting point	300 °C (dec.)

What value of melting point has been reported for the following molecule? Cc1nc(-c2ccc(-c3cnc4[nH]c(=O)n(CC5CCOCC5)c4n3)cc2)[nH]c1C
250 to 254 °C (dec.)

Field request: melting point | item: COCc1nc(-c2ccc(-c3cnc4[nH]c(=O)n(CC5CCOCC5)c4n3)cc2)n[nH]1
273 to 276 °C

Returns the measured melting point for the input molecule. Input: Cl.O=c1[nH]c2ncc(-c3ccc(-c4nnc[nH]4)cc3)nc2n1CCN1CCCCC1
194 to 197 °C

Could you share which melting point value was measured for O=C1CCCN1CCn1c(=O)[nH]c2ncc(-c3ccc(-c4nc[nH]n4)cc3)nc21 ?
300 to 301 °C

Could you tell me which melting point is on file for O=c1[nH]c2ncc(-c3ccc(-c4ncc[nH]4)cc3)nc2n1CCC1CCOCC1 ?
293 to 295 °C

Requested read-out: melting point. Entry: CC(C)(O)c1ccc(-c2cnc3[nH]c(=O)n(CC4CCOCC4)c3n2)cc1
212 to 214 °C

melting point for O=C1Cc2cc(-c3cnc4[nH]c(=O)n(CC5CCCCC5)c4n3)ccc2N1 ?
313 to 316 °C

Would you mind telling me what melting point value was observed for O=c1[nH]c2ncc(-c3cccc(-c4cn[nH]n4)c3)nc2n1CC1CCCCC1 ?
299 to 301 °C

These data points were gathered from patent US7981893B2.
